# Experimental System: Carbonic anhydrase 1 (Homo sapiens, UniProt P00915)
# Sequence (P00915 whole entry): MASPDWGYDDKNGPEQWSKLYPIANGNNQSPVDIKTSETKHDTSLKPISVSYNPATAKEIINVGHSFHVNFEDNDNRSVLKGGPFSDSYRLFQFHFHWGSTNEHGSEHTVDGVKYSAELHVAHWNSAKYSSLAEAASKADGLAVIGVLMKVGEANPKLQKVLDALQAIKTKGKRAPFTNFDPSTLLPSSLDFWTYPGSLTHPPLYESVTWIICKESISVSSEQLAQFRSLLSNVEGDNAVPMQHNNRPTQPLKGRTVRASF
Each entry below carries its recorded Ki.
Measured Metric: Ki (µM)

* NS(=O)(=O)c1ccc(C(=O)N[C@@H](Cc2c[nH]cn2)C(=O)N[C@@H](Cc2ccccc2)C(=O)O)cc1 | 0.24
* NS(=O)(=O)c1cc(C(=O)NCCCC(=O)O)ccc1Cl | 0.2
* NS(=O)(=O)c1cc(C(=O)N[C@H](C(=O)O)C(O)c2ccccc2)ccc1Cl (some centres not stated) | 0.037
* NS(=O)(=O)c1ccc(C(=O)N[C@@H](Cc2ccccc2)C(=O)O)cc1 | 0.56
* NS(=O)(=O)c1cc(C(=O)NCCC(=O)O)ccc1Cl | 0.205
* CSCC[C@H](NC(=O)c1ccc(Cl)c(S(N)(=O)=O)c1)C(=O)O | 0.24
* NS(=O)(=O)c1ccc(C(=O)Nc2nnc(S)s2)cc1 | 0.038
* CSCC[C@H](NC(=O)c1ccc(S(N)(=O)=O)cc1)C(=O)O | 0.4
* NS(=O)(=O)c1cc(C(=O)N[C@H](C(=O)O)c2ccccc2)ccc1Cl | 0.105
* NS(=O)(=O)c1cc(C(=O)N[C@@H](Cc2ccc(O)cc2)C(=O)O)ccc1Cl | 0.115
* CC(C)C[C@H](NC(=O)c1ccc(S(N)(=O)=O)cc1)C(=O)O | 0.405
* NS(=O)(=O)c1ccc(C(=O)N[C@@H](Cc2c[nH]cn2)C(=O)NCC(=O)O)cc1 | 0.38
